Target: T1, monkey TIM-3 extracellular domain protein with hFc tag (cTIM-3-hFc) (monkey)
T1 construct: not shown: human IgG Fc fragment (hFc) of the pCpC vector
T1 chain: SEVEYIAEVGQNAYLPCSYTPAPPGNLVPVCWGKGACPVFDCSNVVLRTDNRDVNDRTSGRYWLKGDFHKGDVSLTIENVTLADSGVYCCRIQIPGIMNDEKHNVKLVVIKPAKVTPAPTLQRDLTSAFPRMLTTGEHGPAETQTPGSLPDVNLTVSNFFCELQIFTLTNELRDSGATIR
Assay: ELISA, coated monkey TIM-3 ECD protein, 66.667 nM antibody
Hi there, I'd appreciate the recorded OD450 for every entry that follows.

Enquiry: // query OD450 value for entry 39E5H1 fully human TIM-3 antibody (human IgG4, kappa) (antibody, V domains shown) VH: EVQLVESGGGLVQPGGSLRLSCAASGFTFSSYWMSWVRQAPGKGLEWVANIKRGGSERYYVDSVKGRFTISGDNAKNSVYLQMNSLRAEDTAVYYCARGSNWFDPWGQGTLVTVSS VL: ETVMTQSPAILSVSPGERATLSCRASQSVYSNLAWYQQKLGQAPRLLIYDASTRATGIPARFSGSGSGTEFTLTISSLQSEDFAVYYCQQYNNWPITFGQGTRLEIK
Return: 3.38

Enquiry: // query OD450 value for entry 18D2H2 fully human TIM-3 antibody (human IgG4, kappa) (antibody, V domains shown) VH: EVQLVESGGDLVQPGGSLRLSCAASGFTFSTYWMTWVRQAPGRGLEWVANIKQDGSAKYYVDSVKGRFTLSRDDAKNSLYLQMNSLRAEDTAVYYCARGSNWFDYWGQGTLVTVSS VL: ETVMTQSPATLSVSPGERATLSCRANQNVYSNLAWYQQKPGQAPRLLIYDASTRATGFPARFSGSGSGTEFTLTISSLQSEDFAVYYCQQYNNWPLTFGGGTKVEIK
Return: 3.27

Enquiry: // query OD450 value for entry 34B6D8 fully human TIM-3 antibody (human IgG4, kappa) (antibody, V domains shown) VH: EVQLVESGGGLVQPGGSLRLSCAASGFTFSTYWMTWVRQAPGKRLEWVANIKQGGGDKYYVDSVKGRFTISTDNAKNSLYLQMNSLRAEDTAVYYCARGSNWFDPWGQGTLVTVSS VL: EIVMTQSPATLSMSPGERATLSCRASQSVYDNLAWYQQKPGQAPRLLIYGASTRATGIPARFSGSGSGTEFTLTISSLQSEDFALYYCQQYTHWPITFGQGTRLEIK
Return: 3.39
